Procedure Text: Decitabine plasma pharmacokinetics
Format: in vivo, human
Measurement Setup: human, intravenous, 20 mg/m^2/day, Mean AUCt (SD), Concurrent schedule: decitabine 20 mg/m^2/day (n = 6), Day 1, cycle 1
Attribute Measured: AUC(0-t) (ng·h/mL)
Your answer is read as ng·h/mL, so omit the unit and give the number.

What AUC(0-t) value was documented for this compound, Nc1ncn([C@H]2C[C@H](O)[C@@H](CO)O2)c(=O)n1 ?
149

###

Procedure Text: Vorinostat serum pharmacokinetics
Format: in vivo, human
Measurement Setup: human, oral, 100 mg, Mean AUCt (SD), Sequential schedule, 100 mg bid days 6–21 (n = 4), day 9 of cycle 1
Attribute Measured: AUC(0-t) (ng·h/mL)
Your answer is read as ng·h/mL, so omit the unit and give the number.

Would you kindly share the measured AUC(0-t) for O=C(CCCCCCC(=O)Nc1ccccc1)NO [vorinostat, suberoylanilide hydroxamic acid] ?
276
